Target: T1, recombinant N-terminal extracellular domain of the human PTH1R receptor (human, UniProt Q03431 27-188, limits assumed)
T1 construct: domain: N-terminal extracellular domain; Bought reagent; also called N-ECD PTH1R; PTH1R N-terminal ECD
T1 sequence (looked up): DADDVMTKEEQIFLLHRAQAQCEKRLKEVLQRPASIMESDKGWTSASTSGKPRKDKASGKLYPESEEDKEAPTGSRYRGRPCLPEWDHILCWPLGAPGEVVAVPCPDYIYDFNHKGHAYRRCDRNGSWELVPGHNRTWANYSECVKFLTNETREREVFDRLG
Assay: SPR, IgG captured, ECD injected
Quick reference: kon of the listed items.
Entry rule: numbers only, all in M⁻¹ s⁻¹.

- XPA.85.344 (antibody, V domains shown, Light-chain-shuffled variant of XPA.85.012) VH: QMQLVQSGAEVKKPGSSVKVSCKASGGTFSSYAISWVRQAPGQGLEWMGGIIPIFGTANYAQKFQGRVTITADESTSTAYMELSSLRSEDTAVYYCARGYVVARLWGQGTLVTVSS VL: DVVMTQTPLSLSVTPGQPASFSCKSTQSLLWRDGNTYLYWYLQKPGQSPQLLIYEVSGRFSGVPERFSGSGSGTDFTLEISRVEAEDVGVYYCMQSIHFPLTFGGGTKLEIK: 1.3e+06

Exercise: What does the data say about its kon? Entry: XPA.85.333 (antibody, V domains shown, Light-chain-shuffled variant of XPA.85.012) VH: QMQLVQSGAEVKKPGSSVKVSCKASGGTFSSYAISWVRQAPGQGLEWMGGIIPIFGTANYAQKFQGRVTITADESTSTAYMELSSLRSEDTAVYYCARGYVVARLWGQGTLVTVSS VL: DVVMTQTPLSLSVTPGQPASISCKSSQSLLHIDGKAYLYWYLQKPGQSPHLLIREVSTRFSGVSDRFTGSGSGTDFTLEISRVEAEDVGVYYCMQGLHLPPTFGQGTKVEIK
Key: 1.8e+06

Exercise: Entry XPA.85.346 (antibody, V domains shown, Light-chain-shuffled variant of XPA.85.012) VH: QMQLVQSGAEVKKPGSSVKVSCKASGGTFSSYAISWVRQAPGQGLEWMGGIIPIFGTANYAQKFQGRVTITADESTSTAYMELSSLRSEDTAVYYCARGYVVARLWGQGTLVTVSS VL: DIVMTQTPLSLSVTPGQPASITCKSSQSLLHIDGKTYLYWFLQKPGQPPQLLIYEVSNRFSGVPDRFSGSGSGTDFTLKISRVEAEDVGLYYCMQSLHLPITFGQGTRLEIK has what kon?
Key: 450000

Exercise: What value of kon has been reported for the following binder? XPA.85.340 (antibody, V domains shown, Light-chain-shuffled variant of XPA.85.017) VH: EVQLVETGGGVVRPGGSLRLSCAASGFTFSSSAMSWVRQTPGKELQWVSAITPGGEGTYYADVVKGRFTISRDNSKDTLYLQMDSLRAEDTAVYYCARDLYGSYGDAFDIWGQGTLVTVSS VL: SYVLTQPPSVSVAPGQTASITCSGDNLGEKFVSWYQQKAGQSPVLVIFEDNKRPSGIPERFAGSNSGNRATLTIRGTQAEDEADYYCQAWDSSWVFGGGTQLTVL
Key: 1.4e+06

Exercise: Item under review: XPA.85.331 (antibody, V domains shown, Light-chain-shuffled variant of XPA.85.012) VH: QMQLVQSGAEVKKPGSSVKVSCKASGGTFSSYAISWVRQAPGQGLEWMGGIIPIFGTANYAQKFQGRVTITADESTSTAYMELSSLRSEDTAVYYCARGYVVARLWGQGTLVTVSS VL: DVVMTQSPLSLPVTPGEPASISCRSSQSLLHIDGFNYLQWYLQKPGQSPQLLVHLGSFRASGVPDRFSGSGSGTDFTLEISRVEAEDVGLYYCMQGLQTPPTFGPGTKVEIK . Reported kon?
Key: 1.6e+06
